The measurements presented in this section are drawn from ChEMBL document CHEMBL3817746.

Test: Chemical stability of the compound assessed as compound remaining at 1 uM at pH 9 after 24 hrs by HPLC-HRMS method
Format: physicochemical
Conditions: buffer, read-out: Stability
MEASURED PARAMETER: remaining at 24 h, 1 µM (%)

MOLECULAR STRING | MEASURED PARAMETER | OBSERVED
COc1cc2ncnc(Nc3ccc(F)c(Cl)c3)c2cc1NC(=O)[C@@H]1COC(=O)N1 | remaining at 24 h, 1 µM | 89.9

###

Target: Epidermal growth factor receptor (Homo sapiens, UniProt P00533, T790M)
Sequence (P00533 25-1210 T790M limits assumed): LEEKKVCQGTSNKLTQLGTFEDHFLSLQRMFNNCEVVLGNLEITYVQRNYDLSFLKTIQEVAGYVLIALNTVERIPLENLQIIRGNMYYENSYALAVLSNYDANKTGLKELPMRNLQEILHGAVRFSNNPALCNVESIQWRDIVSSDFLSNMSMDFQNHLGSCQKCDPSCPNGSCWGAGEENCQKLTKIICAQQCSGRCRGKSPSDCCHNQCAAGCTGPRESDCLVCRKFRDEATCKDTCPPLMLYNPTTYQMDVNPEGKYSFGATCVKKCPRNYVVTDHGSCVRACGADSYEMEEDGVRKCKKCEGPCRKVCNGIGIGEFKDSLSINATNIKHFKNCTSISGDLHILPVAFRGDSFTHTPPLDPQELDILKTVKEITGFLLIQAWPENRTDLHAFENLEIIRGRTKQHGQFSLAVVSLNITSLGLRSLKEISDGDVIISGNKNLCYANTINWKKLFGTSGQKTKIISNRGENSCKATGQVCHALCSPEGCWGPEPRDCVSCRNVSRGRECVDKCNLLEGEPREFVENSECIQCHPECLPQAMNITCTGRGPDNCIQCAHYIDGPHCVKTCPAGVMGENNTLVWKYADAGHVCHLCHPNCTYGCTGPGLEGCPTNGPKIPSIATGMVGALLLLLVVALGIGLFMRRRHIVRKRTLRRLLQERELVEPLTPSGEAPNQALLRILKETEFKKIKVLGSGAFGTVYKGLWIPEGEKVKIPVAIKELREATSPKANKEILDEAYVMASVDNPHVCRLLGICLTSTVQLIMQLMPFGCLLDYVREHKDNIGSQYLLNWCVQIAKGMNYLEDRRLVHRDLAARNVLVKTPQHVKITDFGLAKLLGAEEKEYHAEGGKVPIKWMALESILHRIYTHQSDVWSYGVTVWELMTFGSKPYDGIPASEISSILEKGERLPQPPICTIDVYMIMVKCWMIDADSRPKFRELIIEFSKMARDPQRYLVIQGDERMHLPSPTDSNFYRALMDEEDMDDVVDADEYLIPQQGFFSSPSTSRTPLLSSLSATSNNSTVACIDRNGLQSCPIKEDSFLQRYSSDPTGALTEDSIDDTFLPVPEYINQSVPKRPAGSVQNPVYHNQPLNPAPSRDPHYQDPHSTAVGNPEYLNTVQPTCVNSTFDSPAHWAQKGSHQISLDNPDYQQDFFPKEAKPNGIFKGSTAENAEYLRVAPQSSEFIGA
Assay: Inhibition of EGFR T790M mutant (unknown origin) preincubated for 5 mins followed by ATP addition for 30 mins by HTRF assay
pIC50: −log10 of the molar value.
MEASURED PARAMETER: pIC50

MOLECULAR STRING | SYSTEM NAME | COMPARISON SYMBOL | OBSERVED
COc1cc2ncnc(Nc3ccc(F)c(Cl)c3)c2cc1NC(=O)[C@H]1NC(=O)O[C@@H]1C | Epidermal growth factor receptor (Homo sapiens, UniProt P00533, T790M) | = | 7.40
CCOc1cc2ncnc(Nc3ccc(OCc4cccc(F)c4)c(Cl)c3)c2cc1NC(=O)[C@H]1NC(=O)O[C@@H]1C | Epidermal growth factor receptor (Homo sapiens, UniProt P00533, T790M) | = | 6.53
O=C1N[C@H](C(=O)Nc2cc3c(Nc4ccc(F)c(Cl)c4)ncnc3cc2OCCCN2CCOCC2)CO1 | Epidermal growth factor receptor (Homo sapiens, UniProt P00533, T790M) | = | 7.23
COc1cc2ncnc(Nc3ccc(F)c(Cl)c3)c2cc1NC(=O)[C@@H]1COC(=O)N1 | Epidermal growth factor receptor (Homo sapiens, UniProt P00533, T790M) | = | 7.58
COc1cc2ncnc(Nc3cccc(Br)c3)c2cc1NC(=O)[C@@H]1COC(=O)N1 | Epidermal growth factor receptor (Homo sapiens, UniProt P00533, T790M) | = | 6.90
CCOc1cc2ncnc(Nc3ccc(OCc4cccc(F)c4)c(Cl)c3)c2cc1NC(=O)[C@@H]1COC(=O)N1 | Epidermal growth factor receptor (Homo sapiens, UniProt P00533, T790M) | = | 7.27
CCOc1cc2ncnc(Nc3ccc(OCC4CC4)c(Cl)c3)c2cc1NC(=O)[C@@H]1COC(=O)N1 | Epidermal growth factor receptor (Homo sapiens, UniProt P00533, T790M) | = | 7.09
O=C1N[C@H](C(=O)Nc2cc3c(Nc4ccc(F)c(Cl)c4)ncnc3cc2OCCN2CCCCC2)CO1 | Epidermal growth factor receptor (Homo sapiens, UniProt P00533, T790M) | = | 6.48
CCOc1cc2ncnc(N[C@@H](C)c3ccccc3)c2cc1NC(=O)[C@@H]1COC(=O)N1 | Epidermal growth factor receptor (Homo sapiens, UniProt P00533, T790M) | < | 6.00
CCOc1cc2ncnc(Nc3ccc(OCc4cccc(F)c4)c(Cl)c3)c2cc1NC(=O)[C@H]1COC(=O)N1 | Epidermal growth factor receptor (Homo sapiens, UniProt P00533, T790M) | = | 6.96
